- EXPERIMENT NOTES: clinical
- CONDITION DESCRIPTION: human, in vivo, unfavorable clinical outcome n = 23; plasma Cmin, fourth day of treatment; HPLC-UV; median (IQR); read-out: Colistin levels, Median, IQR
Where a SMILES comes first, the peptide text is derived from it. Bridges are numbered along the chain shown (N, C = ends). [ ]: non-standard residue; d: D form. The star is where a group is joined. X1 = CC[C@H](C)CCCCC(=O)*; Dab = NCC[C@H](N)C(=O)O
EXPERIMENTAL READOUT: level at 96 h
In your response, the unit should come after the numeric value.

QUERY: Consider the compound CC[C@H](C)CCCCC(=O)N[C@@H](CCN)C(=O)N[C@H](C(=O)N[C@@H](CCN)C(=O)N[C@H]1CCNC(=O)[C@H]([C@@H](C)O)NC(=O)[C@H](CCN)NC(=O)[C@H](CCN)NC(=O)[C@H](CC(C)C)NC(=O)[C@@H](CC(C)C)NC(=O)[C@H](CCN)NC1=O)[C@@H](C)O [colistin] (X1-[Dab]T[Dab][Dab][Dab][dL]L[Dab][Dab]T; lactam 4-C) and give its measured level at 96 h.
RESULT: 540 ng/mL
